B1: library; numbered along this chain (parent)
chain: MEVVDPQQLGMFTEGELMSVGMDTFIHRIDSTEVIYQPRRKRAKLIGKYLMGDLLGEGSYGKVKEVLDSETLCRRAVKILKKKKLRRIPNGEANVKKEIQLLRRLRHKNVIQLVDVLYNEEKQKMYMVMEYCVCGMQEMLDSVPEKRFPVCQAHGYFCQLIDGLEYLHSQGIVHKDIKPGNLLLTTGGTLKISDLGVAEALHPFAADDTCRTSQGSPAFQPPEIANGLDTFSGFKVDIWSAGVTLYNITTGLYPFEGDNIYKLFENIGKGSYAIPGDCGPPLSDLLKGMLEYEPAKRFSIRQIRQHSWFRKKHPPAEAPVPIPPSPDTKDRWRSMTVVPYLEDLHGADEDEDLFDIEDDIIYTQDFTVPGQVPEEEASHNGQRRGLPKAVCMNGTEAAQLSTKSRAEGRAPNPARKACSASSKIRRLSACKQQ

- Variants of: B1
- test_name: STK11 functional score (HeLa growth suppression), rescaled enrichment; synonymous median = 1, nonsense median = 0 (normalised score)
- condition_set: with HeLa; variant type: missense
Please note: STK11 functional score exactly at 0.8 is Not fulfilled. Only values below 0.8 get Fulfilled.

Q220A | Not fulfilled

Turning now to a further variant:
Q: Threshold test, STK11 functional score < 0.8: S271C
Ans: Fulfilled
